Attribution: PubChem BioAssay (NCI)

For each entry below, report its TGI value.
tested on: BT-549 breast; experiment: NCI tumour cell line growth inhibition, 48 h

Previously resolved entries follow.
MOLECULE: COc1cccc(CN(C)c2ccc(CO)c(Cl)c2)c1
VALUE_MEASURED: 80 µM

MOLECULE: O=c1[nH]c(=O)n(COCCO)c2ccsc12
VALUE_MEASURED: > 100 µM

MOLECULE: C1=C/COCc2cc(ccc2OCCN2CCCC2)Nc2nccc(n2)-c2ccc(o2)COC/1
VALUE_MEASURED: 4.95 µM

MOLECULE: CC(=O)OC12c3ccccc3C(c3ccccc31)C1C(=O)N(c3ccccn3)C(=O)C12 (configuration not stated)
VALUE_MEASURED: > 100 µM

MOLECULE: O=c1cc(-c2ccc(O)cc2)oc2cc(O[C@@H]3O[C@H](CO)[C@@H](O)[C@H](O)[C@H]3O)cc(O)c12
VALUE_MEASURED: > 100 µM

MOLECULE: NC(Cc1c[nH]c2cc([N+](=O)[O-])ccc12)C(=O)O (configuration not stated)
VALUE_MEASURED: > 100 µM

MOLECULE: Cc1cc(Cl)ccc1OCC(=O)Nc1nc(N)nc(N)n1
VALUE_MEASURED: > 100 µM

MOLECULE: CCOc1ccc(/C(C=O)=C(\Cl)c2ccc(OC)cc2)cc1
VALUE_MEASURED: > 100 µM

MOLECULE: C#CCNC(=S)N/N=C(\C)c1ccccn1
VALUE_MEASURED: > 100 µM

MOLECULE: O=CC(O)C(O)C(O)C1CNC(=S)O1 (configuration not stated)
VALUE_MEASURED: > 100 µM

// for each molecule in input: emit TGI
1. COc1ccc(C(=O)c2cc3c(N)c(C(=O)Nc4ccccc4)sc3nc2C)cc1
2. Cc1cc(Nc2nc(C(=O)Nc3ccccc3)nc3ccccc23)n[nH]1
3. O=C(Sc1c(-c2ccccc2)c(=O)n(-c2ccccc2)c(=S)n1-c1ccccc1)c1cccs1
4. Oc1ccccc1C1C=C(c2ccccc2)NC(N2CCCCC2)=C1c1nc2ccccc2[nH]1 (configuration not stated)
5. CCOc1ccc2c(c1)C(=O)c1c-2n(CCCBr)c(=O)c2cc([N+](=O)[O-])ccc12
6. COC(=O)C1=C(O)C(C(=O)OC)[C@]2(O)[C@@H](C(=O)OC)[C@H]1C[C@@H](c1ccccc1)[C@@H]2C(=O)OC (some centres not stated)

Output:
1. > 100 µM
2. > 25 µM
3. > 100 µM
4. 28.5 µM
5. > 100 µM
6. 33.5 µM
